biological target: T1, recombinant biotinylated human CD71 extracellular domain (human, UniProt P02786 89-760, biotinylated); assay: solution ELISA
T1 construct: extracellular domain; also called hCD71; huCD71 ECD
T1 sequence (P02786 other isoform, or with tags, fused parts or gaps): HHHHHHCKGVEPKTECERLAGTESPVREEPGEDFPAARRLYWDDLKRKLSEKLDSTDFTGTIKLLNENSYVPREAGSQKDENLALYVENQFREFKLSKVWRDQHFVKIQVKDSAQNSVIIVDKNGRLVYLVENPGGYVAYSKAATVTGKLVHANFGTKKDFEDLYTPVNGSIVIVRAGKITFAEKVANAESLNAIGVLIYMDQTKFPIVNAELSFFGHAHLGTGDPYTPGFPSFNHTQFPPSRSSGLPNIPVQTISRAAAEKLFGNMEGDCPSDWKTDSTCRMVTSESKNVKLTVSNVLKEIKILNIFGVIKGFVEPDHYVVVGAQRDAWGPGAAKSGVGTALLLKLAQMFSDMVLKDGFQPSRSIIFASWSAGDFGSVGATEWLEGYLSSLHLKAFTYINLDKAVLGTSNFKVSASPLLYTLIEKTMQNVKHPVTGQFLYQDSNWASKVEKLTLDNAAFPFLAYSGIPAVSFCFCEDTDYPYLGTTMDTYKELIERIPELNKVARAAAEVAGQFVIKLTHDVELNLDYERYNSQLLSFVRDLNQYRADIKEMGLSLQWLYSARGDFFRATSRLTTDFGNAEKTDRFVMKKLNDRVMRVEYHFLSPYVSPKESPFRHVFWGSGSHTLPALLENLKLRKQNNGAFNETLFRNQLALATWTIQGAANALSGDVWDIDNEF
parameterMeasured: hCD71, RLU (RLU)

Some entries whose results are on file:
>>> reportedmeasurement("SEQ ID NO 109 (designed binder, FN3 domain) MLPAPKNLVVSRVTEDSARLSWTAPDAAFDSFHISYEEDYTFGEAIYLRVPGSERSYDLTGLKPGTEYRVVIGGVKGGWFSEPLLAAFTT")
"5.33e+06"
>>> reportedmeasurement("SEQ ID NO 167 (designed binder, FN3 domain) MLPAPKNLVVSRVTEDSARLSWTAPDAAFDSFFIGYLEPQPPGEAIILGVPGSERSYDLTGLKPGTEYSVLIHGVKGGLLSSPLHAYSTT")
"4.17e+06"
>>> reportedmeasurement("SEQ ID NO 140 (designed binder, FN3 domain) MLPAPKNLVVSRVTEDSARLSWTAPDAAFDSFFIGYLEPQPPGEAIQLEVPGSERSYDLTGLKPGTEYNVTIQGVKGGFPSMPLSAIFTT")
603000
>>> reportedmeasurement("SEQ ID NO 147 (designed binder, FN3 domain) MLPAPKNLVVSRVTEDSARLSWTAPDAAFDSFYIAYAEPRPDGEAIVLEVPGSERSYDLTGLKPGTEYSVLIHGVKGGLLSSPLDAHFTT")
"2.94e+06"
>>> reportedmeasurement("SEQ ID NO 160 (designed binder, FN3 domain) MLPAPKNLVVSRVTEDSARLSWTAPDAAFDSFYIAYAEPRPDGEAIVLTVPGSERSYDLTGLKPGTEYSVLIHGVKGGLLSSPLLAYFTT")
"4.46e+06"
>>> reportedmeasurement("SEQ ID NO 117 (designed binder, FN3 domain) MLPAPKNLVVSRVTEDSARLSWTAPDAAFDSFYIAYAEPRPDGEAITLDVPGSERSYDLTGLKPGTEYSVLIHGVKGGLLSSPLSAIFTT")
"1.3e+06"

(P) SEQ ID NO 111 (designed binder, FN3 domain) MLPAPKNLVVSRVTEDSARLSWTAPDAAFDSFFIGYLEPQPPGEAIDLGVPGSERSYDLTGLKPGTEYNVTIQGVKGGFPSMPLDPLEAYFTT
(Q) SEQ ID NO 104 (designed binder, FN3 domain) MLPAPKNLVVSRVTEDSARLSWTAPDAAFDSFYIAYAEPRPDGEAISLLVPGSERSYDLTGLKPGTEYSVLIHGVKGGLLSSPLYAVFTT
(R) SEQ ID NO 180 (designed binder, FN3 domain) MLPAPKNLVVSRVTEDSARLSWTAPDAAFDSFYIAYAEPRPDGEAIALLVPGSERSYDLTGLKPGTEYSVLIHGVKGGLLSSPLVAQFTT
Inquiry: Ascending by hCD71, RLU, please: list the binders accordingly. Reply with the labels, ordered as the question asks.
Reply text: R, Q, P

Origin of measurements: patent US20220332795A1
